Assay: chemical genetic growth profiling, strain panel (AID 1159580);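 further: tested at 20 µM; growth read once vehicle control cultures reached saturation at 30 °C; 1 = growth at the plate median or of vehicle wells; lower values mean less growth of the strain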
Conditions: S. cerevisiae deletion strains, growth OD, locus YBR231C, strain swc5, active compounds read low
The campaign covered roughly 5,500 compounds. About 2,000 (36%) were called active. Another 18% or so got no clear call; they are omitted. The list shows a part of the results.
Labelling field: enter T if recorded normalized growth is less than 1. Enter F if it equals or exceeds that cut-off.

In: I wonder whether CC(CCC(=O)O)[C@H]1CCC2C3CC[C@@H]4CCCC[C@]4(C)C3CC[C@@]21C (stereo not given in full) has normalized growth below 1. Can you tell?
Out: F

In: Below 1 on normalized growth? Entry `C[C@@H](N)[C@@H](O)c1ccccc1`
Out: T

###

Experiment: chemical genetic growth profiling, strain panel (AID 1159580);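 further: tested at 20 µM; growth read once vehicle control cultures reached saturation at 30 °C; 1 = growth at the plate median or of vehicle wells; lower values mean less growth of the strain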
Conditions: S. cerevisiae deletion strains, growth OD, locus YKL068W, active compounds read low
In all, about 5,500 compounds went through this assay and about 2,000 (36%) were called active. Roughly 18% stayed inconclusive and do not appear here. Some of the results follow.
Kindly supply the reported normalized growth values for the records listed here.
Please reply with the number alone, leaving off any unit.

In: Retrieve normalized growth measured for `CN1CCN(C2=Nc3ccccc3Oc3ccc(Cl)cc32)CC1` and print it.
Out: 0.992

In: Tell me normalized growth reported for `Cc1nc2sccn2c(=O)c1CCN1CCC(=C(c2ccc(F)cc2)c2ccc(F)cc2)CC1`
Out: 0.999

In: Quickly give me recorded normalized growth for CN1CC(CNC(=O)OCc2ccccc2)CC2c3cccc4c3c(cn4C)CC21 (stereo not given)
Out: 0.983

In: Give the value of normalized growth reported for the following: `C[C@H](N)[C@H](O)c1ccccc1`
Out: 0.999

In: State its normalized growth: `C[C@@H](N)[C@@H](O)c1ccccc1`
Out: 0.978

In: Assign normalized growth to the following record: `Cc1cc2c(C(C)C)c(O)c(O)c(C=O)c2c(O)c1-c1c(C)cc2c(C(C)C)c(O)c(O)c(C=O)c2c1O`
Out: 1.04

In: Query normalized growth for CC(=O)O[C@H]1C[C@@H](OC(C)=O)C(C)(C)C2CC(=O)[C@]3(C)C(CC[C@@]4(C)[C@H](c5ccoc5)OC(=O)[C@H]5O[C@]543)[C@]21C (stereo not given in full)
Out: 1.01

In: Fill in normalized growth for record `O=c1[nH]cnc2[nH]ncc12`
Out: 1.01

In: Specify measured normalized growth for `Cc1nc2ccccn2c(=O)c1CCN1CCC(C(=O)c2ccc(F)cc2)CC1` .
Out: 1

In: Name the recorded normalized growth of the molecule listed here: `Clc1ccc2c(c1)C(N1CCNCC1)=Nc1ccccc1O2`
Out: 0.996

###

Experiment: chemical genetic growth profiling, strain panel (AID 1159580);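 further: tested at 20 µM; growth read once vehicle control cultures reached saturation at 30 °C; 1 = growth at the plate median or of vehicle wells; lower values mean less growth of the strain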
Conditions: S. cerevisiae deletion strains, growth OD, locus YML124C, strain tub3, active compounds read low
The campaign covered roughly 5,500 compounds. About 2,000 (36%) were called active. Another 18% or so got no clear call; they are omitted. This is one part of the list.
Provide the recorded normalized growth for the entries that follow.
Format: numeric value only, no unit, no commentary.

In: Specify measured normalized growth for `O=C(O)c1ccccc1C(=O)Nc1ccc(S(=O)(=O)Nc2nccs2)cc1` .
Out: 0.992

In: Please give the documented normalized growth of C[C@@H]1O[C@@H](O[C@H]2C[C@@H](O)[C@]3(CO)C4C(CC[C@]3(O)C2)[C@@]2(O)CC[C@H](C3=CC(=O)OC3)[C@@]2(C)C[C@H]4O)[C@H](O)[C@H](O)[C@H]1O (stereo not given in full)
Out: 0.987

In: Supply reported normalized growth belonging to this compound: CC(=O)O[C@H]1C[C@@H](OC(C)=O)C(C)(C)C2CC(=O)[C@]3(C)C(CC[C@@]4(C)[C@H](c5ccoc5)OC(=O)[C@H]5O[C@]543)[C@]21C (stereo not given in full)
Out: 1

In: Hello, please tell me recorded normalized growth for this one: `O=c1cc(-c2ccccc2)oc2cc(O)cc(O)c12`
Out: 0.952

In: State its normalized growth for this compound: `Cc1cc(O)c(C)c2c1C(=O)Oc1c(C)c(O)c(C(=O)O)c(C)c1O2`
Out: 0.991

In: Supply reported normalized growth belonging to this compound: Cc1cc(O)c(C=O)c2c1C(=O)Oc1c(C)c(O)c3c(c1O2)C(O)OC3=O (stereo not given)
Out: 0.975

In: Look up normalized growth of `CCCCSP(=O)(SCCCC)SCCCC` and report it.
Out: 1.01

In: Give the reported normalized growth for this compound. `N[C@H](Cc1cc(I)c(Oc2ccc(O)c(I)c2)c(I)c1)C(=O)O`
Out: 0.997

In: Input `O=c1cc(-c2cc(O)c(O)c(O)c2)oc2cc(O)cc(O)c12` , output reported normalized growth.
Out: 0.998

In: Report measured normalized growth; entry is `COc1cc([C@@H]2c3cc4c(cc3[C@H](OC(C)=O)[C@H]3COC(=O)[C@@H]23)OCO4)cc(OC)c1OC`
Out: 1.02

In: In one line, give reported normalized growth of the entry CC1(C)C(=O)C=C[C@@]2(C)C1CC(=O)[C@@]1(C)C3=CC(=O)O[C@@H](c4ccoc4)[C@]3(C)CCC12 (stereo not given in full) .
Out: 0.996

In: Answer with reported normalized growth of `O=c1cc(-c2ccccc2)oc2c(O)c(O)ccc12`
Out: 0.999

In: Return the recorded normalized growth value; entry: `C[C@@H](N)[C@@H](O)c1ccccc1`
Out: 0.993

In: Please indicate normalized growth recorded for `O=C(Nc1ccccc1)Nc1ccccc1`
Out: 0.971

In: State, in one line, measured normalized growth of `N[C@@H](Cc1cc(I)c(Oc2cc(I)c(O)c(I)c2)c(I)c1)C(=O)O`
Out: 1.06

In: Please list normalized growth recorded for the compound C[C@H](CCC(=O)O)[C@H]1CCC2C3C(CC[C@@]21C)[C@@]1(C)CC[C@@H](O)C[C@H]1C[C@H]3O (stereo not given in full)
Out: 1.05

In: Kindly indicate its recorded normalized growth. Item: `Nc1cc(-c2ccncc2)c[nH]c1=O`
Out: 0.971

In: Determine from records and report normalized growth for `CC(=O)Nc1ccccc1`
Out: 0.982

In: Indicate its recorded normalized growth; the compound in question is `CN(C)C(=O)Nc1ccc(Cl)c(Cl)c1`
Out: 1

In: Retrieve normalized growth measured for `N[C@@H]1[C@@H](O)[C@H](O)[C@@H](CO)O[C@H]1O` and print it.
Out: 1.01
